The entries below come with measured IC50 values attached.
# experimental_system: Human KDR (residues 790-1356) (Homo sapiens (Human))
# assay_notes: Human KDR kinase assay, HTRF KinEase (Example B-2)
# Assay type: biochemical
# stated_conditions: protocol of Example B-2 (other compounds)

Some molecules with known IC50 results, for comparison:
Consider the molecule shown here: `COc1cnc2c(Oc3ccc(NC(=O)c4nn(C)c(C)c(-c5ccc(F)cc5)c4=O)cc3)ccnc2c1` What is its recorded IC50? > 300 nM

Also `COc1cc2nccc(Oc3ccc(NC(=O)c4cc(C)c(C)n(-c5ccc(F)cc5)c4=O)cc3F)c2nc1OC` ? < 100 nM

Also `COc1ccc2nccc(Oc3ccc(NC(=O)c4c(C)ccn(-c5ccc(F)cc5)c4=O)cc3F)c2n1` ? < 100 nM

Also `CCn1cc(C(=O)Nc2ccc(Oc3ccnc4cc(OC)c(OC)nc34)c(F)c2)c(=O)c(-c2ccc(F)cc2)c1` ? < 100 nM

Also `COc1cnc2c(Oc3ccc(NC(=O)c4ccc(C)n(-c5ccc(F)cc5C)c4=O)cc3F)ccnc2c1` ? < 100 nM

More entries:
Consider the molecule shown here: `COc1cc2nccc(Oc3ccc(NC(=O)c4cnc(NC(=O)OC(C)(C)C)n(-c5ccc(F)cc5)c4=O)cc3F)c2nc1OC` What is its recorded IC50? 100 to 300 nM

Also `CCc1cnc2c(Oc3ccc(NC(=O)c4cnc(C)c(-c5ccc(F)cc5C)c4O)cc3F)ccnc2c1` ? > 300 nM

Also `COc1cc2nccc(Oc3ccc(NC(=O)c4ccc(C)n(-c5ccc(F)cc5C)c4=O)cc3F)c2nc1OC` ? < 100 nM

Also `COc1ccc2nccc(Oc3ccc(NC(=O)c4c(C)nc(C)n(-c5ccc(F)cc5)c4=O)cc3F)c2n1` ? < 100 nM

Also `COc1cnc2c(Oc3ccc(NC(=O)c4cnc(C)c(-c5ccc(F)cc5C)c4O)cc3)ccnc2c1` ? > 300 nM

Also `COc1cc2nccc(Oc3ccc(NC(=O)c4ncc(C)n(-c5ccc(F)cc5)c4=O)cc3)c2nc1OC` ? < 100 nM

Also `CCn1cc(C(=O)Nc2ccc(Oc3ccnc4cc(OC)c(OC)nc34)cc2)c(=O)c(-c2ccc(F)cc2C)c1CO` ? > 300 nM

Also `COc1cnc2c(Oc3ccc(NC(=O)c4cn(C)c(C)c(-c5ccc(F)cc5)c4=O)cc3)ccnc2c1` ? > 300 nM

---

The entries below come with measured pIC50 values attached.
# experimental_system: Human KDR (residues 790-1356) (Homo sapiens (Human), UniProt P35968)
# Sequence (P35968 790-1356): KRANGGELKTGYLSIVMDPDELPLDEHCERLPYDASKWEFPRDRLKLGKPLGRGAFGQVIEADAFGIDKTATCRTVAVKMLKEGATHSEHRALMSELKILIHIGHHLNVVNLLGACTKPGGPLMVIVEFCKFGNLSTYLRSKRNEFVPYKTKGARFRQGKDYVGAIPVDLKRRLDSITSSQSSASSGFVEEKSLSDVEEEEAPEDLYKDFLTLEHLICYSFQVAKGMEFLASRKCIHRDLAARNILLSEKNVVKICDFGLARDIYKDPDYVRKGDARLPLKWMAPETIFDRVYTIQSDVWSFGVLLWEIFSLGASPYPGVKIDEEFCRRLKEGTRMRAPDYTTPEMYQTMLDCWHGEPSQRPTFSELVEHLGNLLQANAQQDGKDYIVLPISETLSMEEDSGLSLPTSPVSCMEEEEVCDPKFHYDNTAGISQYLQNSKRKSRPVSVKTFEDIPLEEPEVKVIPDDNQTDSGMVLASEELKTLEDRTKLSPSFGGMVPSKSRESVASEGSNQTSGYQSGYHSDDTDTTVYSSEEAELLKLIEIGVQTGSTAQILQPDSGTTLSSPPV
# assay_notes: Human KDR kinase assay, HTRF KinEase (Example B-2)
# Type: biochemical
# stated_conditions: protocol of Example B-2 (other compounds)
pIC50: −log10 of the molar value.

Some compounds with known pIC50 results, for comparison:
Consider the compound shown here: `COc1ccc2nccc(Oc3ccc(NC(=O)c4cnc(CO)c(-c5ccc(F)cc5)c4O)cc3F)c2n1` What is its recorded pIC50? 6.52 to 7.00

Also `COc1ccc2nccc(Oc3ccc(NC(=O)c4cn(C)c(CO)c(-c5ccc(F)cc5)c4=O)cc3F)c2n1` ? < 6.52

Also `COc1cc2nccc(Oc3ccc(NC(=O)c4c(C)c(Br)c(C)n(-c5ccc(F)cc5)c4=O)cc3F)c2nc1OC` ? < 6.52

Proceeding to the next compound to report its pIC50.
Consider the compound shown here: `COc1cc2nccc(Oc3ccc(NC(=O)c4cn(C5(C(F)(F)F)CC5)cc(-c5ccc(F)cc5)c4=O)cc3F)c2nc1OC` What is its recorded pIC50? 6.52 to 7.00

---

# experimental_system: KDR (phospho-KDR, VEGF165-stimulated HUVEC cells) (Homo sapiens (Human), UniProt P35968)
# Sequence (P35968 20-1356): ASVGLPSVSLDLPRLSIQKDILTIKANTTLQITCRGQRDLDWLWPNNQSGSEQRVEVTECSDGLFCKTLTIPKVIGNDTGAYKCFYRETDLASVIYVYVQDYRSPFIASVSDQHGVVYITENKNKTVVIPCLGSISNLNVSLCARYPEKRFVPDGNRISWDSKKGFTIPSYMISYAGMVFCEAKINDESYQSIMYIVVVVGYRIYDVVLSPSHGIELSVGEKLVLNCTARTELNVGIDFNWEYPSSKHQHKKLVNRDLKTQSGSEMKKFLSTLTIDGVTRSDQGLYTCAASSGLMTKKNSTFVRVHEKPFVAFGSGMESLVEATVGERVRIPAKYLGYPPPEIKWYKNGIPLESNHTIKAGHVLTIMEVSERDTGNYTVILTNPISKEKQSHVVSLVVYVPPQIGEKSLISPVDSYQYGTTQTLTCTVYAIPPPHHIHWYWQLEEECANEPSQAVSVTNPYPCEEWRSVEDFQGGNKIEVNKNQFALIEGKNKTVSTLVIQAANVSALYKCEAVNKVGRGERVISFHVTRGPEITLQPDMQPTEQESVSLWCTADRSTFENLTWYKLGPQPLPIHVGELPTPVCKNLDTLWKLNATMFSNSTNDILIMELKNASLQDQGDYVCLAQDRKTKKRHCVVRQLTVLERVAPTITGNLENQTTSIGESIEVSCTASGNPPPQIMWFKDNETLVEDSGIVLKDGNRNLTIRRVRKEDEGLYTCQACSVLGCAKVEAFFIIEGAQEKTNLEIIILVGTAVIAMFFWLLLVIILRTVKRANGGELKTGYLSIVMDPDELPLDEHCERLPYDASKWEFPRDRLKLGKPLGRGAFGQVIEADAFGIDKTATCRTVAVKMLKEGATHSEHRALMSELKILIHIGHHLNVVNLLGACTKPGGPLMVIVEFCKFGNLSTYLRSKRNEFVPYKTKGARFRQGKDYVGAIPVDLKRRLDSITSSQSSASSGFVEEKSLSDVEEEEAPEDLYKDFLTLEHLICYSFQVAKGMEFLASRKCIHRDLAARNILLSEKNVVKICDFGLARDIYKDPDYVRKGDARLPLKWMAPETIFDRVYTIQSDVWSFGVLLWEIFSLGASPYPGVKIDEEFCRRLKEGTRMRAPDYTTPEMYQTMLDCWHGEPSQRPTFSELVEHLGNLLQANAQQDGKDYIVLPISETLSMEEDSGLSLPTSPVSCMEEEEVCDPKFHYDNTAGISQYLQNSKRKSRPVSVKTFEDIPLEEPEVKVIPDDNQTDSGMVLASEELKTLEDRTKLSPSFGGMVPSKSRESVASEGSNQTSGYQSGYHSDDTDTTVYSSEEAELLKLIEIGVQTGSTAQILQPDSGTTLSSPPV
# assay_notes: KDR autophosphorylation ELISA in HUVEC cells (Example G)
# Assay type: cell-based
# stated_conditions: cellular activity; KDR autophosphorylation ELISA in HUVEC cells
measurement_kind: IC50

Some molecules with known IC50 results, for comparison:
Consider the molecule shown here: `COc1cc2nccc(Oc3ccc(NC(=O)c4cn(CCO)c(CO)c(-c5ccc(F)cc5C)c4=O)cc3F)c2nc1OC` What is its recorded IC50? > 300 nM

Also `CNc1nccc2c(Oc3ccc(NC(=O)c4cnc(C)c(-c5ccc(F)cc5)c4O)cc3)ccnc12` ? < 100 nM

Also `COc1cc2nccc(Oc3ccc(NC(=O)c4n[nH]c(C)c(-c5ccc(F)cc5C)c4=O)cc3F)c2nc1OC` ? < 100 nM

Also `COc1cc2nccc(Oc3ccc(NC(=O)c4cc(-c5ccc(F)cc5)c(C)nn4)cc3F)c2nc1OC` ? > 300 nM

More entries:
Consider the molecule shown here: `COc1cnc2c(Oc3cc(F)c(NC(=O)c4c(C)nc(C)c(-c5ccc(F)cc5C)c4O)cc3Cl)ccnc2c1` What is its recorded IC50? < 100 nM

Also `CCc1cc2nccc(Oc3ccc(NC(=O)c4cnc(C)c(-c5ccc(F)cc5)c4O)cc3F)c2nc1OC` ? < 100 nM

Also `COc1cc2nccc(Oc3ccc(NC(=O)c4cn5c(c(-c6ccc(F)cc6)c4=O)CCCC5)cc3F)c2nc1OC` ? < 100 nM

Also `CCn1cc(C(=O)Nc2ccc(Oc3ccnc4cc(OC)cnc34)c(F)c2)c(=O)c(-c2ccc(F)cc2)c1CF` ? > 300 nM

Also `COc1cc2nccc(Oc3ccc(NC(=O)c4c(C)c(F)cn(-c5ccc(F)cc5)c4=O)cc3F)c2nc1OC` ? < 100 nM

Also `COCc1nc(C)c(-c2ccc(F)cc2F)c(O)c1C(=O)Nc1cc(F)c(Oc2ccnc3cc(OC)c(OC)nc23)cc1F` ? < 100 nM

Also `COc1cc2nccc(Oc3ccc(NC(=O)c4c(C)c(C)cn(-c5ccc(F)cc5)c4=O)cc3F)c2nc1OC` ? < 100 nM

---

# experimental_system: Human MET (residues 956-1390) (Homo sapiens (Human), UniProt P08581)
# Sequence (P08581 956-1390): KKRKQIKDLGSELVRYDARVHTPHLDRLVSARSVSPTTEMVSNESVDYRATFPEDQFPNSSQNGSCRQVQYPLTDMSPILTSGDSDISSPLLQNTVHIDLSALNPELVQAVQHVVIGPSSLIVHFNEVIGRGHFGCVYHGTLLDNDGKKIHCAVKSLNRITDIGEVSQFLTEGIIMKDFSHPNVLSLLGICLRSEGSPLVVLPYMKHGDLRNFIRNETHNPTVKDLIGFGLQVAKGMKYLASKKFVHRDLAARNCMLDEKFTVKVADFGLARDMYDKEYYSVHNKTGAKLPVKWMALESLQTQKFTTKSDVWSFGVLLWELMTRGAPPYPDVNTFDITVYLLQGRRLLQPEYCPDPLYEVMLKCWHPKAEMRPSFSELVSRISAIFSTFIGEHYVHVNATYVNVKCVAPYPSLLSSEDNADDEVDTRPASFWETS
# assay_notes: Human Met kinase assay, HTRF KinEase (Example D-2)
# Format: biochemical
# stated_conditions: protocol of Example D-2 (other compounds); read-out: c-Met IC50
The entries below come with measured IC50 values attached.

Some molecules with known IC50 results, for comparison:
Consider the molecule shown here: COc1cc2nccc(Oc3ccc(NC(=O)c4cc(C#N)c(C)n(-c5ccc(F)cc5)c4=O)cc3F)c2nc1OC [Compound 87] What is its recorded IC50? < 100 nM

Also CCc1nc(C)c(-c2ccc(F)cc2C)c(O)c1C(=O)Nc1ccc(Oc2ccnc3cc(OC)c(OC)nc23)c(F)c1 [Compound 202] ? 100 to 300 nM

Also COc1cc2nccc(Oc3ccc(NC(=O)c4ncc(C)n(-c5ccc(F)cc5)c4=O)cc3)c2nc1OC [Compound 262] ? < 100 nM

Also COc1ccc2nccc(Oc3ccc(NC(=O)c4ccc(C)n(-c5ccc(F)cc5)c4=O)cc3F)c2n1 [Compound 84] ? < 100 nM

Also COc1cnc2c(Oc3ccc(NC(=O)c4cn(C)c(C)c(-c5ccc(F)cc5C)c4=O)cc3)ccnc2c1 [Compound 187] ? < 100 nM

Also COc1cnc2c(Oc3ccc(NC(=O)c4c(C)ccn(-c5ccc(F)cc5)c4=O)cc3)ccnc2c1 [Compound 300] ? 100 to 300 nM

Also Cc1ncc(C(=O)Nc2ccc(Oc3ccnc4cc(C(F)(F)F)cnc34)cc2)c(O)c1-c1ccc(F)cc1 [Compound 150] ? < 100 nM

Also COc1ccc2nccc(Oc3ccc(NC(=O)c4c(C)cc(C)n(-c5ccc(F)cc5)c4=O)cc3)c2n1 [Compound 290] ? 100 to 300 nM

Also COc1cnc2c(Oc3ccc(NC(=O)c4c(C)nc(C)n(-c5ccc(F)cc5)c4=O)cc3F)ccnc2c1 [Compound 257] ? < 100 nM

Also CCn1cc(C(=O)Nc2ccc(Oc3ccnc4cc(OC)c(OC)nc34)cc2)c(=O)c(-c2ccc(F)cc2)c1C [Compound 168] ? < 100 nM

More entries:
Consider the molecule shown here: COCc1nc(C)c(-c2ccc(F)cc2C)c(O)c1C(=O)Nc1ccc(Oc2ccnc3cc(OC)c(OC)nc23)cc1 [Compound 192] What is its recorded IC50? < 100 nM

Also CCc1nc(C)c(-c2ccc(F)cc2)c(O)c1C(=O)Nc1ccc(Oc2ccnc3cc(OC)cnc23)c(F)c1 [Compound 180] ? < 100 nM

Also Cc1nc(C)n(-c2ccc(F)cc2)c(=O)c1C(=O)Nc1ccc(Oc2ccnc3cc(OCc4ccccc4)cnc23)c(F)c1 [Compound 278] ? < 100 nM

Also CNc1c(-c2ccc(F)cc2)c(=O)c(C(=O)Nc2ccc(Oc3ccnc4cc(OC)c(OC)nc34)c(F)c2)cn1C [Compound 76] ? < 100 nM

---

# experimental_system: KDR (phospho-KDR, VEGF165-stimulated HUVEC cells) (Homo sapiens (Human), UniProt P35968)
# assay_notes: KDR autophosphorylation ELISA in HUVEC cells (Example G)
# Format: cell-based
# stated_conditions: cellular activity; KDR autophosphorylation ELISA in HUVEC cells
The entries below come with measured IC50 values attached.

I'm curious: which IC50 was measured for `COc1cnc2c(Oc3ccc(NC(=O)c4cn(C)c(C)c(-c5ccc(F)cc5C)c4=O)cc3)ccnc2c1` tested on KDR (phospho-KDR, VEGF165-stimulated HUVEC cells) (Homo sapiens (Human), UniProt P35968)? > 300 nM

Also `COc1ccc(-c2c(C)nc(C)c(C(=O)Nc3ccc(Oc4ccnc5cc(OC)cnc45)c(F)c3)c2O)c(F)c1` ? < 100 nM

Also `CCn1cc(C(=O)Nc2ccc(Oc3ccnc4cc(OC)c(OC)nc34)cc2)c(=O)c(-c2ccc(F)cc2)c1CO` ? > 300 nM

Also `CCn1cc(C(=O)Nc2ccc(Oc3ccnc4cc(OC)cnc34)c(F)c2)c(=O)c(-c2ccc(F)cc2C)c1CO` ? > 300 nM

Also `COc1nc2c(Oc3ccc(NC(=O)c4cn(C(C)C)cc(-c5ccc(F)cc5)c4=O)cc3F)ccnc2cc1-c1cnn(C(F)F)c1` ? < 100 nM

More entries:
I'm curious: which IC50 was measured for `COc1cnc2c(Oc3ccc(NC(=O)c4c(C)c(Cl)c(C)n(-c5ccc(F)cc5)c4=O)cc3)ccnc2c1` tested on KDR (phospho-KDR, VEGF165-stimulated HUVEC cells) (Homo sapiens (Human), UniProt P35968)? > 300 nM

Also `COCCOc1nc2c(Oc3ccc(NC(=O)c4cnc(C)c(-c5ccc(F)cc5C)c4O)cc3F)ccnc2cc1OC` ? < 100 nM
